- Organism: Homo sapiens
- PROTOCOL SUMMARY: Selectivity index, ratio of IC50 for human thromboxane A2 receptor alpha to IC50 for human thromboxane A2 receptor beta
OBSERVABLE: Ratio IC50

{"COMPOUND STRUCTURE STRING": "CC(C)(C)NC(=O)NS(=O)(=O)c1cc(C#N)ccc1Nc1ccc(F)cc1", "Ratio IC50": 0.95}

1. CC(C)NC(=O)NS(=O)(=O)c1cc(C#N)ccc1Oc1ccc(F)cc1
2. Cc1cccc(Nc2ccc(C#N)cc2S(=O)(=O)NC(=O)NC(C)(C)C)c1
-- ask Task for the reader: decide whether 1 or 2 has the larger Ratio IC50. Please reply using the label of the selected record.
-- reply 1
(1: 1, 2: 0.7)

A. Cc1ccccc1Oc1ccc(C#N)cc1S(=O)(=O)NC(=O)NC(C)C
B. CCCCCNC(=O)NS(=O)(=O)c1cc(C#N)ccc1Oc1ccc(Br)cc1
-- ask // compare: A vs B , metric Ratio IC50, want the smaller Please reply using the label of the selected record.
-- reply B
(B: 0.9, A: 1.4)

1. CCCCCNC(=O)NS(=O)(=O)c1cc(C#N)ccc1Nc1ccc(F)cc1
2. CCCCCNC(=O)NS(=O)(=O)c1cc(C#N)ccc1Nc1ccccc1C
3. Cc1ccccc1Nc1ccc(C#N)cc1S(=O)(=O)NC(=O)NC(C)C
-- ask Provide the items ranked by increasing Ratio IC50. Please write the labels in the order that was asked for.
-- reply 2, 3, 1

Reference source: ChEMBL document CHEMBL2401731
